Reported pKi is given for each of the following molecules.
# assayInfo: Inhibitory activity against Inducible nitric oxide synthase
pKi: −log10 of the molar value. Peptide text beside a SMILES is read from it.
measuredQuantity: pKi

molecule	measuredQuantity	qualifierOperator	numericReadout
NCc1ccc(NC[C@@H](N)CCC/N=C(\N)N[N+](=O)[O-])cc1	pKi	=	3.47
COC(=O)[C@@H](CCC/N=C(\N)N[N+](=O)[O-])NC(=O)[C@@H](N)Cc1ccccc1 (HELM PEPTIDE1{F.[N=C(NCCC[C@@H](N[*:1])C(=O)[*:2])N[N+](=O)[O-]].[CO[*:1]]}$$$$V2.0)	pKi	=	2.12
NC(=O)[C@H](N)NC(=O)[C@@H](N)CCC/N=C(/N)N[N+](=O)[O-]	pKi	=	4.21
NCc1ccccc1NC[C@@H](N)CCC/N=C(\N)N[N+](=O)[O-]	pKi	=	4.53
NCc1cccc(NC[C@@H](N)CCC/N=C(\N)N[N+](=O)[O-])c1	pKi	=	4.10
COC(=O)[C@@H](CCCNC(=N)N[N+](=O)[O-])NC(=O)[C@H](N)Cc1ccccc1 (HELM PEPTIDE1{[dF].[N=C(NCCC[C@@H](N[*:1])C(=O)[*:2])N[N+](=O)[O-]].[CO[*:1]]}$$$$V2.0)	pKi	=	2.44
Cc1c(C)c2c(c(C)c1O)CC[C@@](C)(C(=O)C1CCC(c3ccc(NC(=N)c4cccs4)cc3)CC1)O2 (some centres not stated)	pKi	<	3.52

###

# assayInfo: Inhibitory activity against endothelial nitric oxide synthase (eNOS)
pKi: −log10 of the molar value. Peptide text beside a SMILES is read from it.
Reported pKi is given for each of the following molecules.

molecule	pKi
NCc1ccc(NC[C@@H](N)CCC/N=C(\N)N[N+](=O)[O-])cc1	3.39
CCCCC[C@H]1NC(=N)C[C@H]1C	3.65
Cc1c(C)c2c(c(C)c1O)CC[C@@](C)(C(=O)C1CCC(c3ccc(NC(=N)c4cccs4)cc3)CC1)O2 (stereo partly drawn)	3.96
NCNC[C@@H](N)CCC/N=C(/N)N[N+](=O)[O-]	3.50
NCc1ccccc1NC[C@@H](N)CCC/N=C(\N)N[N+](=O)[O-]	4.40
N/C(=N/CCC[C@H](N)CNc1cccnc1)N[N+](=O)[O-]	3.28
N/C(=N\CCC[C@@H](NC(=O)[C@H](N)Cc1ccccc1)C(=O)O)N[N+](=O)[O-] (HELM PEPTIDE1{[dF].[N=C(NCCC[C@@H](N[*:1])C(=O)O)N[N+](=O)[O-]]}$$$$V2.0)	4.05
NCc1cccc(NC[C@@H](N)CCC/N=C(\N)N[N+](=O)[O-])c1	3.71

###

# assayInfo: Selectivity for neuronal over endothelial nitric oxide synthase
Peptide text beside a SMILES is read from it.
Reported Selectivity is given for each of the following molecules.

molecule	Selectivity
N/C(=N\CCC[C@H](N)CNCc1cccnc1)N[N+](=O)[O-]	254
NC(=O)[C@H](N)NC(=O)[C@@H](N)CCC/N=C(/N)N[N+](=O)[O-]	237
NCNC[C@@H](N)CCC/N=C(/N)N[N+](=O)[O-]	2580
N/C(=N\CCC[C@@H](NC(=O)[C@H](N)Cc1ccccc1)C(=O)O)N[N+](=O)[O-] (HELM PEPTIDE1{[dF].[N=C(NCCC[C@@H](N[*:1])C(=O)O)N[N+](=O)[O-]]}$$$$V2.0)	5.3
COC(=O)[C@@H](CCC/N=C(\N)N[N+](=O)[O-])NC(=O)[C@@H](N)Cc1ccccc1 (HELM PEPTIDE1{F.[N=C(NCCC[C@@H](N[*:1])C(=O)[*:2])N[N+](=O)[O-]].[CO[*:1]]}$$$$V2.0)	1.7
COC(=O)[C@@H](CCCNC(=N)N[N+](=O)[O-])NC(=O)[C@H](N)Cc1ccccc1 (HELM PEPTIDE1{[dF].[N=C(NCCC[C@@H](N[*:1])C(=O)[*:2])N[N+](=O)[O-]].[CO[*:1]]}$$$$V2.0)	2.5
NCc1ccccc1NC[C@@H](N)CCC/N=C(\N)N[N+](=O)[O-]	7.17
N/C(=N/CCC[C@H](N)CNc1cccnc1)N[N+](=O)[O-]	951
NC(=O)[C@@H](CCC/N=C(/N)N[N+](=O)[O-])NC(=O)[C@H](N)Cc1ccccc1	5.3
NCc1ccc(NC[C@@H](N)CCC/N=C(\N)N[N+](=O)[O-])cc1	299

###

# assayInfo: Inhibitory activity against Inducible nitric oxide synthase
Peptide text beside a SMILES is read from it.
Entries are grouped by Ki into these classes: low range: < 40 µM; mid range: ≥ 40 µM and < 400 µM; high range: ≥ 400 µM

compound	class
NC[C@H](NC(=O)[C@@H](N)CCC/N=C(\N)N[N+](=O)[O-])C(N)=O (HELM PEPTIDE1{[N=C(NCCC[C@H](N)C(=O)[*:2])N[N+](=O)[O-]].[NC[C@H](N[*:1])C(=O)[*:2]].[am]}$$$$V2.0)	low range
NCCCC[C@@H](N)C(=O)N[C@H](CCC/N=C(/N)N[N+](=O)[O-])C(N)=O (HELM PEPTIDE1{[dK].[N=C(NCCC[C@@H](N[*:1])C(=O)[*:2])N[N+](=O)[O-]].[am]}$$$$V2.0)	high range
CCCCC[C@H]1NC(=N)C[C@H]1C	low range
N/C(=N\CCC[C@@H](NC(=O)[C@H](N)Cc1ccccc1)C(=O)O)N[N+](=O)[O-] (HELM PEPTIDE1{[dF].[N=C(NCCC[C@@H](N[*:1])C(=O)O)N[N+](=O)[O-]]}$$$$V2.0)	high range
N/C(=N/CCC[C@H](N)CNc1cccnc1)N[N+](=O)[O-]	mid range
NCCCNC[C@@H](N)CCC/N=C(\N)N[N+](=O)[O-]	mid range
N=C(NCCC[C@H](N)C(=O)N[C@@H]1CN[C@@H](C(N)=O)C1)N[N+](=O)[O-]	mid range
[H]/N=C(/NCCC[C@H](N)C(=O)N[C@H]1CNC(C(N)=O)C1)N[N+](=O)[O-] (stereo partly specified)	low range
NCCCC[C@H](N)C(=O)N[C@H](CCC/N=C(\N)N[N+](=O)[O-])C(N)=O (HELM PEPTIDE1{K.[N=C(NCCC[C@@H](N[*:1])C(=O)[*:2])N[N+](=O)[O-]].[am]}$$$$V2.0)	high range

###

Reported Ki is given for each of the following compounds.
# assayInfo: Inhibitory activity against endothelial nitric oxide synthase (eNOS)
Peptide text beside a SMILES is read from it.
measuredQuantity: Ki (µM)

compound	measuredQuantity	numericReadout
N/C(=N\CCC[C@H](N)CNCc1cccnc1)N[N+](=O)[O-]	Ki	193
COC(=O)[C@@H](CCC/N=C(\N)N[N+](=O)[O-])NC(=O)[C@@H](N)Cc1ccccc1 (HELM PEPTIDE1{F.[N=C(NCCC[C@@H](N[*:1])C(=O)[*:2])N[N+](=O)[O-]].[CO[*:1]]}$$$$V2.0)	Ki	150
NC[C@H](NC(=O)[C@@H](N)CCC/N=C(\N)N[N+](=O)[O-])C(N)=O (HELM PEPTIDE1{[N=C(NCCC[C@H](N)C(=O)[*:2])N[N+](=O)[O-]].[NC[C@H](N[*:1])C(=O)[*:2]].[am]}$$$$V2.0)	Ki	200
N=C(NCCC[C@H](N)C(=O)N[C@@H]1CN[C@@H](C(N)=O)C1)N[N+](=O)[O-]	Ki	110
NC(=O)[C@H](N)NC(=O)[C@@H](N)CCC/N=C(/N)N[N+](=O)[O-]	Ki	261
NCCCNC[C@@H](N)CCC/N=C(\N)N[N+](=O)[O-]	Ki	411
NC(=O)[C@@H](CCC/N=C(/N)N[N+](=O)[O-])NC(=O)[C@H](N)Cc1ccccc1	Ki	90

###

# assayInfo: Inhibitory activity against neuronal nitric oxide synthase
Peptide text beside a SMILES is read from it.
We label by threshold. Values of Ki strictly beneath 2000 nM are Fulfilled. Values of 2000 nM and up are Not fulfilled.

molecule	class
N/C(=N\CCC[C@@H](NC(=O)[C@H](N)Cc1ccccc1)C(=O)O)N[N+](=O)[O-] (HELM PEPTIDE1{[dF].[N=C(NCCC[C@@H](N[*:1])C(=O)O)N[N+](=O)[O-]]}$$$$V2.0)	Not fulfilled
NCc1ccc(NC[C@@H](N)CCC/N=C(\N)N[N+](=O)[O-])cc1	Fulfilled
NCNC[C@@H](N)CCC/N=C(/N)N[N+](=O)[O-]	Fulfilled
CCCCC[C@H]1NC(=N)C[C@H]1C	Not fulfilled
NC(=O)[C@H](N)NC(=O)[C@@H](N)CCC/N=C(/N)N[N+](=O)[O-]	Fulfilled
COC(=O)[C@@H](CCC/N=C(\N)N[N+](=O)[O-])NC(=O)[C@@H](N)Cc1ccccc1 (HELM PEPTIDE1{F.[N=C(NCCC[C@@H](N[*:1])C(=O)[*:2])N[N+](=O)[O-]].[CO[*:1]]}$$$$V2.0)	Not fulfilled
